# assay_details: PK study in male Sprague-Dawley rats dosed once per day for five days, PO 1 mg/kg, 0.5% HPMC (Example 6)
# Assay type: in vivo
# condition_details: male, Sprague-Dawley, rat, in vivo, po, 1 mg/kg, male Sprague-Dawley rats, single (first) PO 1 mg/kg dose, 0.5% HPMC suspension; individual animals; read-out: t1/2 (converted)
parameter: half-life (h)
Answer in h, number only, no unit symbol.

INPUT: Tell me half-life reported for Cc1cc(Nc2cc(N)ncn2)c(=O)n2c1C(=O)NC21CCC2(CC2)CC1 [4ET-03-053]
OUTPUT: 5.51

---

# assay_details: PK study in male Sprague-Dawley rats dosed once per day for five days, PO 10 mg/kg, 0.5% HPMC (Example 7)
# Format: in vivo
# condition_details: male, Sprague-Dawley, rat, in vivo, po, 10 mg/kg, male Sprague-Dawley rats, single PO 10 mg/kg, 0.5% HPMC suspension; read-out: peak plasma concentration (Cmax)
parameter: Cmax

INPUT: Tell me Cmax reported for Cc1cc(Nc2cc(N)ncn2)c(=O)n2c1C(=O)NC21CCC2(CC2)CC1
OUTPUT: 22300 ng/mL

---

# assay_details: Plasma and brain concentrations, brain:plasma ratio 24 hr after last of five daily 1 mg/kg PO doses (Example 6)
# Format: in vivo, rats
# condition_details: rat, brain; Sprague-Dawley rats, 24 hr after the last dose of five daily PO doses of 1 mg/kg; read-out: brain:plasma ratio
parameter: Kp at 24 h

INPUT: Tell me Kp at 24 h reported for Cc1cc(Nc2cc(N)ncn2)c(=O)n2c1C(=O)NC21CCC2(CC2)CC1 [4ET-03-053]
OUTPUT: 0.086

---

# assay_details: PK study in male Sprague-Dawley rats dosed once per day for five days, PO 1 mg/kg, 0.5% HPMC (Example 6)
# Assay type: in vivo
# condition_details: male, Sprague-Dawley, rat, in vivo, po, 1 mg/kg, Sprague-Dawley rats, day 5 of daily PO 1 mg/kg, 0.5% HPMC suspension; individual animals; read-out: Clast
parameter: concentration at 24 h (ng/mL)
Answer in ng/mL, number only, no unit symbol.

INPUT: Tell me concentration at 24 h reported for Cc1cc(Nc2cc(N)ncn2)c(=O)n2c1C(=O)NC21CCC2(CC2)CC1
OUTPUT: 226

---

# assay_details: Plasma and brain concentrations, brain to plasma ratio 24 hr after last of five 25 mg/kg PO doses (Example 8)
# Type: in vivo
# condition_details: male, Sprague-Dawley, rat, plasma, oral, 25 mg/kg, rats, plasma, 24 hr after the last of five 25 mg/kg PO doses; individual animals (n = 3); read-out: Plasma Conc.
parameter: concentration at 24 h (ng/mL)
Answer in ng/mL, number only, no unit symbol.

INPUT: Tell me concentration at 24 h reported for Cc1cc(Nc2cc(N)ncn2)c(=O)n2c1C(=O)NC21CCC2(CC2)CC1
OUTPUT: 5340

---

# assay_details: PK study in male Sprague-Dawley rats, IV 0.5 mg/kg and PO 1 mg/kg in 10% DMA/PG (Example 5)
# Assay type: in vivo
# condition_details: male, Sprague-Dawley, rat, in vivo, iv, 0.5 mg/kg, t1/2
parameter: half-life
Reply with the number, then its unit.

INPUT: Tell me half-life reported for Cc1cc(Nc2cc(N)ncn2)c(=O)n2c1C(=O)NC21CCC2(CC2)CC1 [4ET-03-053]
OUTPUT: 7.26 h

---

# assay_details: PK study in male Sprague-Dawley rats dosed once per day for five days, PO 25 mg/kg, 0.5% HPMC (Example 8)
# Format: in vivo
# condition_details: male, Sprague-Dawley, rat, in vivo, po, 25 mg/kg, after the last of five daily 25 mg/kg PO doses, 0.5% HPMC suspension, read-out: terminal half-life (t1/2) (converted)
# Protocol: Example 8. PK study of 4ET-03-053 in male Sprague-Dawley rats dosed once per day for five days (P0; 25 mg/kg; 0.5HPMC aqueous suspension) Table 24 provides plasma and brain concentrations at 24 hr after the last dose of five daily PO doses of 4ET-03-053.
parameter: half-life (h)
Answer in h, number only, no unit symbol.

INPUT: Tell me half-life reported for Cc1cc(Nc2cc(N)ncn2)c(=O)n2c1C(=O)NC21CCC2(CC2)CC1
OUTPUT: 10.5

---

# System: P-gp (human MDR1, ABCB1)
# assay_details: in vitro
# condition_details: dog, MDCK-MDR1
parameter: Papp A→B at 5 uM
Reply with the number, then its unit.

INPUT: Tell me Papp A→B at 5 uM reported for Cc1cc(Nc2cc(NC(=O)C3CC3)ncn2)c(=O)n2c1C(=O)NC21CCC2(CC1)CN2 (stereo not shown)
OUTPUT: 0.6 ×10⁻⁶ cm/s

---

# assay_details: PK study in male Sprague-Dawley rats, IV 0.5 mg/kg and PO 1 mg/kg in 10% DMA/PG (Example 5)
# Format: in vivo
# condition_details: male, Sprague-Dawley, rat, in vivo, po, 1 mg/kg
# Description: Example 5: PK study of 4ET-03-053 in male Sprague-Dawley rats with IV (0.5 mg kg; 10% DMI 15% EtOH 35% PG 40% NS) and PO (1 mg kg; 10% DMA PG) dosing In male Sprague-Dawley rats, following IV administration with 0.5 mg/kg 4ET-03-053, plasma concentrations declined in a multiphasic manner with an initial concentration (Co) of 1.24 ug/mL and a last measurable concentration (Clast) of 33.2 ng/mL at 24 h post dose. […]
parameter: bioavailability (%)
Answer in %, number only, no unit symbol.

INPUT: Tell me bioavailability reported for Cc1cc(Nc2cc(N)ncn2)c(=O)n2c1C(=O)NC21CCC2(CC2)CC1
OUTPUT: 76.7

---

# assay_details: in vitro
# condition_details: mouse, microsomes
parameter: half-life (h)
Answer in h, number only, no unit symbol.

INPUT: Tell me half-life reported for Cc1cc(Nc2cc(NC(=O)C3CC3)ncn2)c(=O)n2c1C(=O)NC21CCC2(CC1)CN2 (stereo not shown) [4ET-03-040]
OUTPUT: 1.28

---

# assay_details: PK study in male Sprague-Dawley rats dosed once per day for five days, PO 1 mg/kg, 0.5% HPMC (Example 6)
# Assay type: in vivo
# condition_details: male, Sprague-Dawley, rat, in vivo, po, 1 mg/kg, male Sprague-Dawley rats, single (first) PO 1 mg/kg dose, 0.5% HPMC suspension; mean (n = 3); read-out: AUCinf
parameter: AUC(0-inf) (ng·h/mL)
Answer in ng·h/mL, number only, no unit symbol.

INPUT: Tell me AUC(0-inf) reported for Cc1cc(Nc2cc(N)ncn2)c(=O)n2c1C(=O)NC21CCC2(CC2)CC1 [4ET-03-053]
OUTPUT: 33600

---

# assay_details: PK study in male Sprague-Dawley rats dosed once per day for five days, PO 25 mg/kg, 0.5% HPMC (Example 8)
# Format: in vivo
# condition_details: male, Sprague-Dawley, rat, in vivo, po, 25 mg/kg, single PO 25 mg/kg dose, 0.5% HPMC suspension, mean (n = 3)
parameter: Tmax (h)
Answer in h, number only, no unit symbol.

INPUT: Tell me Tmax reported for Cc1cc(Nc2cc(N)ncn2)c(=O)n2c1C(=O)NC21CCC2(CC2)CC1
OUTPUT: 1.33

---

# assay_details: PK study in male Sprague-Dawley rats, IV 0.5 mg/kg and PO 1 mg/kg in 10% DMA/PG (Example 5)
# Type: in vivo
# condition_details: male, Sprague-Dawley, rat, in vivo, iv, 0.5 mg/kg, male Sprague-Dawley rats, IV 0.5 mg/kg, 10% DMI:15% EtOH:35% PG:40% NS; mean (n = 3); read-out: Clast
parameter: concentration at 24 h (ng/mL)
Answer in ng/mL, number only, no unit symbol.

INPUT: Tell me concentration at 24 h reported for Cc1cc(Nc2cc(N)ncn2)c(=O)n2c1C(=O)NC21CCC2(CC2)CC1
OUTPUT: 33.2

---

# assay_details: PK study in male Sprague-Dawley rats dosed once per day for five days, PO 10 mg/kg, 0.5% HPMC (Example 7)
# Format: in vivo
# condition_details: male, Sprague-Dawley, rat, in vivo, po, 10 mg/kg, Sprague-Dawley rats, day five of daily PO 10 mg/kg, 0.5% HPMC suspension; mean (n = 3)
parameter: MRT inf
Reply with the number, then its unit.

INPUT: Tell me MRT inf reported for Cc1cc(Nc2cc(N)ncn2)c(=O)n2c1C(=O)NC21CCC2(CC2)CC1 [4ET-03-053]
OUTPUT: 9.38 h

---

# assay_details: PK study in CD-1 male mice with IV and PO dosing (Example 3)
# Format: in vivo
# condition_details: male, CD-1, mouse, in vivo, iv, 1.5 mg/kg, AUCinf
parameter: AUC(0-inf) (ng·h/mL)
Answer in ng·h/mL, number only, no unit symbol.

INPUT: Tell me AUC(0-inf) reported for Cc1cc(Nc2cc(N)ncn2)c(=O)n2c1C(=O)NC21CCC2(CC2)CC1 [4ET-03-053]
OUTPUT: 1530
